Assay: Mean plasma concentration at 24h in Swiss albino male mice at […] per compound (administered orally in a mixture of 5 compounds to 3 mice) assessed by LCMS/MS.
Assay type: ADME, organism-based
Settings: mouse, po
value type: concentration at 24 h (ng/mL)

Recorded concentration at 24 h, per entry:
get_value(item= `Cc1nc2cnc(-c3cccc(C(F)(F)C(F)(F)F)c3)cn2c1-c1c(F)cc(O)cc1F` , readout=concentration at 24 h) returns 7

Record summary for `CC(C)c1nc2cnc(-c3ccc(F)c(C(F)(F)F)c3)cn2c1-c1c(F)cc(OP(=O)(O)O)cc1F` : reported concentration at 24 h = 0.1

Noted for `CC(C)c1nc2cnc(-c3ccc(F)c(S(F)(F)(F)(F)F)c3)cn2c1-c1ccc2[nH]ncc2c1F` : its concentration at 24 h reads 71.4

So, `Cc1nc2cnc(-c3cccc(C(F)(F)F)c3)cn2c1-c1c(F)cc(O)cc1F` ? Its concentration at 24 h was 0.1

concentration at 24 h measured on `Cc1c(-c2c(C(F)(F)F)nc3cnc(-c4ccc(F)c(C(F)(F)F)c4)cn23)ccc2[nH]ncc12` = 98.1

Memo: `Oc1ccc(-c2cnc3cnc(-c4cccc(C(F)(F)F)c4)cn23)c(F)c1` , reported concentration at 24 h: 0.1

Reported concentration at 24 h of `Oc1cc(F)c(-c2cnc3cnc(-c4cccc(C(F)(F)F)c4)cn23)c(F)c1` : 0.1

Lookup result for `CCc1nc2cnc(-c3ccc(F)c(C(F)(F)F)c3)cn2c1-c1c(F)cc(O)cc1F` ; measured concentration at 24 h: 12.3

P: COc1ccc(-c2c(C(C)C)nc3cnc(-c4cccc(C(F)(F)F)c4)cn23)cc1O
Q: CC(C)c1nn2cnc(-c3ccc(F)c(C(F)(F)F)c3)cc2c1-c1c(F)cc(O)cc1F
Problem: Which value of concentration at 24 h is numerically greater: that of P or that of Q ? Returns: label corresponding to the selected item.
Solution: P
(P: 0.1 ng/mL, Q: 0.01 ng/mL)

Recorded values, source ChEMBL document CHEMBL4651341.
